Each recorded value in this set is attributed to patent US20030068675.

Target: ZFP SBS#1151 (synthetic)
Sequence (chain, as listed by the source): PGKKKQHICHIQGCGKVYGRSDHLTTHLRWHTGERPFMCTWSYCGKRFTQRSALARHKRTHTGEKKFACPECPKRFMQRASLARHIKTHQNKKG
Assay: EMSA
Conditions: tags: MBP fusion
Assay readout: pKd
Notebook: values listed as pKd are -log10 of the concentration (mol/L).

Look up pKd of GTAGTATGG (dsDNA) DNA 1: GTAGTATGG DNA 2: CCATACTAC and report it.
8.79
